Cited source for all entries: PubChem BioAssay AID1963985

# System: 252836-082-R-J2-PDC tumor spheroids, viability;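 note: spheroids exposed to agents for seven days before readout; percent of vehicle DMSO control viability so 100% = untreated growth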
# experiment.notes: Anticancer human tumor 252836-082-R-J2-PDC patient-derived head and neck squamous cell carcinoma cell line growth inhibition [PI3K]
# settings: second compound 10 µM; first compound 3.16 µM; stronger effect = lower value; spheroids with HUVEC and MSC
Consider the following molecules and their measured viability, T/C readings.
State the answer as a number, implicitly in %.

These solved cases illustrate the format of a correct answer.
CNC(=O)c1ccc(N2C(=S)N(c3ccc(C#N)c(C(F)(F)F)c3)C(=O)C2(C)C)cc1F + CC(Nc1ncnc2nc[nH]c12)c1cc2cccc(Cl)c2c(=O)n1-c1ccccc1 : 69.8
C[C@@H](NC(=O)c1ncnc(N)c1Cl)c1ncc(C(=O)Nc2cc(C(F)(F)F)c(Cl)cn2)s1 + Cc1nc(NC(=O)N2CCCC2C(N)=O)sc1-c1ccnc(C(C)(C)C(F)(F)F)c1 : 23.4
C=CC(=O)N1CCN(c2nc(=O)n(-c3c(C)ccnc3C(C)C)c3nc(-c4c(O)cccc4F)c(F)cc23)C(C)C1 (stereo not given) + CC(Nc1ncnc2nc[nH]c12)c1cc2cccc(Cl)c2c(=O)n1-c1ccccc1 : 94.9
CNC(=O)c1ccc(N2C(=S)N(c3ccc(C#N)c(C(F)(F)F)c3)C(=O)C2(C)C)cc1F + Cc1nc(NC(=O)N2CCCC2C(N)=O)sc1-c1ccnc(C(C)(C)C(F)(F)F)c1 : 40.3

Using known records, supply viability, T/C for CC1(C)CCC(Nc2ncc(C(F)(F)F)c(-c3c[nH]c4c(P(C)(C)=O)c(C#N)ccc34)n2)CN1 (stereo not given) + Cc1nc(NC(=O)N2CCCC2C(N)=O)sc1-c1ccnc(C(C)(C)C(F)(F)F)c1
12.7
